Provenance of the data: patent US7282512B2

target: human cathepsin K (Homo sapiens, UniProt P43235)
Construct: The proform of cathepsin K was converted to mature cathepsin K by brief exposure to pH 4; made in house; host or cells: baculovirus; Trichoplusia ni High Five cells (virus raised in Sf-9)
Sequence (P43235 115-329): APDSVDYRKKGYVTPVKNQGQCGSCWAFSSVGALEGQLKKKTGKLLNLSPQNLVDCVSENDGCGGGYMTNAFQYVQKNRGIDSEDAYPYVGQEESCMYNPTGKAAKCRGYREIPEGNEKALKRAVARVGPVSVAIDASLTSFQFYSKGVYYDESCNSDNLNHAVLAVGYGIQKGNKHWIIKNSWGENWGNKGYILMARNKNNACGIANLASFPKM
assay.method.text: cathepsin K inhibition assay, fluorogenic substrate Cbz-Phe-Arg-AMC, progress curve method
Assay type: biochemical
test.conditions: Table 2; human recombinant enzyme, 10 μM substrate; read-out: hCat K Ki
reported.metric: Ki

Consider the following illustrative entries.
[
  {
    "structure.as.smiles": "CCCC[C@H](NC(=O)OC1(Cc2ccccc2)CCCC1)C(=O)C(=O)N[C@@H](C)C(=O)OCc1ccccc1",
    "Ki": "10 to 100 nM"
  },
  {
    "structure.as.smiles": "CCCC[C@H](NC(=O)OCC1(Cc2ccc(F)cc2)CCC1)C(=O)C(=O)Nc1n[nH]c2cc(Cl)ccc12",
    "Ki": "< 1 nM"
  }
]

Now consider a different molecule.
Any idea what Ki was measured for `CCCC[C@H](NC(=O)OC1(c2nc3ccccc3s2)CCCC1)C(=O)C(=O)Nc1ccn[nH]1` ?
1 to 10 nM

###

target: human cathepsin K (Homo sapiens, UniProt P43235)
Construct: The proform of cathepsin K was converted to mature cathepsin K by brief exposure to pH 4; made in house; host or cells: baculovirus; Trichoplusia ni High Five cells (virus raised in Sf-9)
Sequence (P43235 115-329): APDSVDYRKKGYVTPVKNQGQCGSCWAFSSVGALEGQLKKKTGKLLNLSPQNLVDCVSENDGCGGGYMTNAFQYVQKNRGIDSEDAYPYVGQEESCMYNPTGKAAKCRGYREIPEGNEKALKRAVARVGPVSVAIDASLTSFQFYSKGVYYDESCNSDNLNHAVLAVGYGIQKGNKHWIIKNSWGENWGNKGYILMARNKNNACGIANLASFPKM
assay.method.text: cathepsin K inhibition assay, fluorogenic substrate Cbz-Phe-Arg-AMC, progress curve method
Format: biochemical
test.conditions: Table 1; human recombinant enzyme, pH 5.5, 30° C., 10 μM substrate; read-out: hcatK Ki
reported.metric: Ki

Worked examples follow.
[
  {
    "structure.as.smiles": "CCCC[C@H](NC(=O)OCC1(CCSc2nccn2C)CCC1)C(=O)C(=O)N[C@H](C)c1ccccc1",
    "Ki": "> 1000 nM"
  },
  {
    "structure.as.smiles": "CCCC[C@H](NC(=O)OCC1(CSc2ncccn2)CCC1)C(=O)C(=O)N[C@H](C)c1ccccc1",
    "Ki": "10 to 100 nM"
  },
  {
    "structure.as.smiles": "CCCC[C@H](NC(=O)OCC1(COc2nccs2)CCC1)C(=O)C(=O)N[C@H](C)c1ccccc1",
    "Ki": "10 to 100 nM"
  }
]

Alright, here's another compound for you.
# get_value(readout= Ki, system= human cathepsin K (Homo sapiens, UniProt P43235)) for `CCCC[C@H](NC(=O)OCC1(CSc2nccn2C)CCC1)C(=O)C(=O)N[C@H](C)c1ccccc1`
10 to 100 nM
